Test system: UO-31
Assay: NCI tumour cell line growth inhibition, 48 h
Calls of active or inactive are those of the source. No stated cut-off is given here; in the data, active = GI50 up to about 1.1 µM and inactive = higher.
readout-name: GI50

COC(=O)C(C(=O)C(=O)Nc1ccccc1C)c1nc2ccc([N+](=O)[O-])cc2nc1O (centres undefined)	> 100 µM (inactive)

Below are some molecules; for each one, tell me its GI50.
1. CCOC(=O)C(NC(=O)CC)(Nc1ccccc1OC)C(F)(F)F (centres undefined)
2. COC(=O)CCSC(=O)Nc1ccccc1Cl
3. COc1ccc(C(c2ccc(C(C)C)cc(OC)c2=O)c2ccc(C(C)C)cc(OC)c2=O)cc1

Reply |
1: > 100 µM (inactive); 2: > 100 µM (inactive); 3: 14.3 µM (inactive)

All figures here come from ChEMBL document CHEMBL1201862.
